We begin with a simple list: items and their reported Kd.
Target: T1, recombinant human sc-uPA (human, UniProt P00749 21-431)
T1 construct: 411 amino acid single-chain zymogen expressed in HEK293; the 20-residue signal peptide is not present in the mature protein; also called human single-chain uPA; pro-uPA
Assay: SPR, mAb immobilised
Express your answer in nM, writing the number without its unit.

Some solved cases for reference:
rec0266-0000-0010-VH_G99E (antibody, mouse IgG1, V domains shown) VH: DVKLVESGGGLVKPGGSLKLSCVASGFTFSSYTMSWVRQTPEKRLEWVATISGGGSHIYYADSVKGRFTISRDNAKNTLYLQMSSLKSEDTAIYYCTRDGRDESWFAYWGQGTLVTVSA VL: DIVMTQSPATLSVTPGDRVSLSCRTSQSIGDYLHWYQQKSHESPRLLIKYVSQSISGIPSRFSGSGSGSDFTLSINSVESEDVGVYYCQNSHSFPLTFGSGTKLELKR
1.4
rec0266-0000-0010-VH_G96K (antibody, mouse IgG1, V domains shown) VH: DVKLVESGGGLVKPGGSLKLSCVASGFTFSSYTMSWVRQTPEKRLEWVATISGGGSHIYYADSVKGRFTISRDNAKNTLYLQMSSLKSEDTAIYYCTRDKRDGSWFAYWGQGTLVTVSA VL: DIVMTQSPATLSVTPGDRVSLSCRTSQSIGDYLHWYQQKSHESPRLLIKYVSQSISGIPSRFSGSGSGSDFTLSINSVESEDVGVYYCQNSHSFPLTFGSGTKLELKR
0.95

Please examine the following record next.
Prompt: Any idea what Kd was measured for rec0266-0000-0010-VH_D98E (antibody, mouse IgG1, V domains shown) VH: DVKLVESGGGLVKPGGSLKLSCVASGFTFSSYTMSWVRQTPEKRLEWVATISGGGSHIYYADSVKGRFTISRDNAKNTLYLQMSSLKSEDTAIYYCTRDGREGSWFAYWGQGTLVTVSA VL: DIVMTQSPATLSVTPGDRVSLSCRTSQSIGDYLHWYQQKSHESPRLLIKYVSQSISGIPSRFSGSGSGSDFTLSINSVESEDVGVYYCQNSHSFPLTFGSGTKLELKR ?
Completion: 4.9

The measured values listed here are drawn from patent US20160159924A1.
